assay: Oral PK in dogs (Table 1); type: in vivo; settings: dog, plasma; canine, 20 mg/kg oral gavage
parameter-measured: Cmax (ng/mL)

CNC(=O)c1ccnc(NC(=O)N2CCC(Oc3ccccc3Cl)CC2)c1 [Compound 1]	12500

###

test: Oral PK in rats (Table 1); format: in vivo; conditions: plasma; Sprague Dawley rat, 12.5 mg/kg oral gavage, 24 hour; read-out: Drug in Plasma, 24 hour
parameter-measured: concentration at 24 h (ng/mL)

CNC(=O)c1ccnc(NC(=O)N2CCC(Oc3ccccc3Cl)CC2)c1	437

###

test: Oral PK in dogs (Table 1); format: in vivo; settings: dog, plasma; canine, 20 mg/kg oral gavage
parameter-measured: Tmax (h)

CNC(=O)c1ccnc(NC(=O)N2CCC(Oc3ccccc3Cl)CC2)c1 [Compound 1]	1

###

assay: Oral PK in rats (Table 1); assay type: in vivo; details: plasma; Sprague Dawley rat, 12.5 mg/kg oral gavage
parameter-measured: Cmax (ng/mL)

CNC(=O)c1ccnc(NC(=O)N2CCC(Oc3ccccc3Cl)CC2)c1	11600

###

assay: Oral PK in mice (Table 1); assay type: in vivo; settings: mouse, plasma; C57BL/6 mice, 10 mg/kg oral gavage
parameter-measured: AUC(0-t)

CNC(=O)c1ccnc(NC(=O)N2CCC(Oc3ccccc3Cl)CC2)c1	20900 ng·h/mL

###

assay: Oral PK in rats (Table 1); format: in vivo; conditions: plasma; Sprague Dawley rat, 12.5 mg/kg oral gavage
parameter-measured: AUC(0-t) (µg·h/mL)

CNC(=O)c1ccnc(NC(=O)N2CCC(Oc3ccccc3Cl)CC2)c1 [Compound 1]	96.4

###

Sequence of the target: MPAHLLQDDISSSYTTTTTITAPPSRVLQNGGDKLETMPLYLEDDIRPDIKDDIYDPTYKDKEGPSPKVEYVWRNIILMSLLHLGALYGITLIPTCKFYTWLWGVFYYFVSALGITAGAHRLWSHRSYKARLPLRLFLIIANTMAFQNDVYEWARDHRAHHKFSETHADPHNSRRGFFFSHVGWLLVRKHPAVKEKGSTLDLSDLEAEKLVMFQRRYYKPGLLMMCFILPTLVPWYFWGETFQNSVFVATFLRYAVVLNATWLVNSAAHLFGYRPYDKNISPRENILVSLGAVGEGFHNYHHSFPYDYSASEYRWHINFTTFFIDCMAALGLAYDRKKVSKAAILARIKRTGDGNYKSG
parameter-measured: IC50 (nM)

CNC(=O)c1ccnc(NC(=O)N2CCC(Oc3ccccc3Cl)CC2)c1 [Compound 1]	1.9

###

experiment: Oral PK in dogs (Table 1); assay type: in vivo; conditions: dog, plasma; canine, 20 mg/kg oral gavage
parameter-measured: AUC(0-t) (ng·h/mL)

CNC(=O)c1ccnc(NC(=O)N2CCC(Oc3ccccc3Cl)CC2)c1	90500

###

test: Oral PK in dogs (Table 1); format: in vivo; conditions: dog, plasma; canine, 20 mg/kg oral gavage, 24 hour; read-out: Drug in Plasma, 24 hour
parameter-measured: concentration at 24 h (ng/mL)

CNC(=O)c1ccnc(NC(=O)N2CCC(Oc3ccccc3Cl)CC2)c1	212

###

Assay: Oral PK in mice (Table 1)
Assay type: in vivo
Conditions: mouse, plasma; C57BL/6 mice, 10 mg/kg oral gavage, 24 hour; read-out: Drug in Plasma, 24 hour
Procedure: Serum chemistry and histochemical analysis is done for both the Western Diet and MCD mouse models. Body weight and Echo-MRI is used to determine lean muscle, fat, and water content of the mice. At the end of the study, the animals are fasted overnight, and blood samples are collected for serum chemistry. A full panel of liver and metabolite biomarkers are assessed. […] Additionally, insulin, leptin and adiponectin levels are assessed as part of validation of models. […]
parameter-measured: concentration at 24 h

CNC(=O)c1ccnc(NC(=O)N2CCC(Oc3ccccc3Cl)CC2)c1	~25 ng/mL
